Sourced from paper PMC6493465

experimentDescription: Pharmacokinetic assays (plasma and tumor) in nude mice xenografted with MV4-11 cells
Assay type: in vivo, mouse
runParameters: nude, mouse, plasma, po, 3 mg/kg, gilteritinib in plasma; gilteritinib 3, azacitidine 3 mg/kg; read-out: AUC24
reportedMetric: AUC
I'd appreciate it if you included the unit after the number.

### Prompt Could you tell me which AUC is on file for `CCc1nc(C(N)=O)c(Nc2ccc(N3CCC(N4CCN(C)CC4)CC3)c(OC)c2)nc1NC1CCOCC1` ?
### Response 0.0691 µg·h/mL

* * *

experimentDescription: Pharmacokinetic assays (plasma and tumor) in nude mice xenografted with MV4-11 cells
Type: in vivo, mouse
runParameters: nude, mouse, tumor, po, 3 mg/kg, gilteritinib in tumor; gilteritinib 3 mg/kg, AraC 0, IDR 0
reportedMetric: Cmax (ng/g)
Express your answer in ng/g, writing the number without its unit.

### Prompt Value lookup for Cmax; key = `CCc1nc(C(N)=O)c(Nc2ccc(N3CCC(N4CCN(C)CC4)CC3)c(OC)c2)nc1NC1CCOCC1`
### Response 677
